For each record, write down the corresponding LD50.
Test: Acute toxicity in mice (LD50)
Assay type: in vivo
Conditions: mouse, in vivo, oral, read-out: LD50, oral administration

MOLECULE	LD50
CC1=C(/C=C/C(C)=C/C=C/C(C)=C\C(=O)Oc2c(C)c(C)c3c(c2C)CCC(C)(CCCC(C)CCCC(C)CCCC(C)C)O3)C(C)(C)CCC1 (stereo not drawn) [α-tocopherol-13-cis-vitamin A acid ester]	> 10000 mg/kg

Lookup: State the recorded LD50 for this entry: CC1=C(/C=C/C(C)=C/C=C/C(C)=C/C(=O)Oc2c(C)c(C)c3c(c2C)CCC(C)(CCCC(C)CCCC(C)CCCC(C)C)O3)C(C)(C)CCC1 (stereo not drawn) [α-tocopherol-trans-vitamin A acid ester]
Found: > 10000 mg/kg
